Measured values drawn from paper PMC9421653 for this set.

Assign logD to each entry below.
Assay: Log D7.4 (distribution coefficient)
Format: physicochemical
Details: pH 7.4
# respond with the number and nothing more

stdin: Tell us which logD value is on record for O=C(NCCO)c1ccc(-c2nnc(Cc3c[nH]c4ccccc34)nc2-c2ccccc2)cc1
stdout: 3.09

stdin: Tell us which logD value is on record for c1ccc(-c2nc(Cc3c[nH]c4ccccc34)nnc2-c2ccc(CN3CCOCC3)cc2)cc1
stdout: 3.84

stdin: Tell us which logD value is on record for c1ccc(-c2nnc(Cc3c[nH]c4ccccc34)nc2-c2ccccc2)cc1
stdout: 4.24

stdin: Tell us which logD value is on record for CNC(=O)c1ccc(-c2nnc(Cc3c[nH]c4cnccc34)nc2-c2ccccc2)cc1
stdout: 2.71
